Field: inhibition at 100 µM. Provide a value for each of the molecules that follow.
# tested.system: OSTα/β (Homo sapiens, UniProt Q86UW1)
# Sequence (Q86UW1 whole entry): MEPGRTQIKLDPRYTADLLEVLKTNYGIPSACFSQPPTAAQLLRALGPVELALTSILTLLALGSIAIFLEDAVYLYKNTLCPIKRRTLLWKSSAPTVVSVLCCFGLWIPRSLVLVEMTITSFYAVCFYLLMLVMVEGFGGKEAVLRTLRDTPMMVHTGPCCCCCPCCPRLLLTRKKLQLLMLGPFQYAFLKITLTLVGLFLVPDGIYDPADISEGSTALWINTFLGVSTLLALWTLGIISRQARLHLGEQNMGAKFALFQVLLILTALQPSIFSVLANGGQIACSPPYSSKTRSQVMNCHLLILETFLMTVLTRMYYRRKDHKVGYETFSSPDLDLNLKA
# Sequence (Q86UW2 whole entry partner): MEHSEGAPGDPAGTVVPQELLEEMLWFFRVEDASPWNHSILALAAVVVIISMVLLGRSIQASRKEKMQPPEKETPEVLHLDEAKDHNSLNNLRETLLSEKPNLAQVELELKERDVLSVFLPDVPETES
# assay.name: Inhibition of OSTα/β-mediated DHEAS uptake in OSTα/β-overexpressing Flp-In 293
# Format: cell-based
# cond: Flp-In-293, read-out: Inhibition of OSTα/β-mediated DHEAS uptake (screening)

Provide inhibition at 100 µM values for the following items, in order.
1. O=C1OC(c2ccc(O)c(S(=O)(=O)O)c2)(c2ccc(O)c(S(=O)(=O)O)c2)c2c(Br)c(Br)c(Br)c(Br)c21 [sulfobromophthalein]
2. C#C[C@]1(OC(C)=O)CC[C@H]2[C@@H]3CCC4=CC(=NO)CC[C@@H]4[C@H]3CC[C@@]21CC (mixture of isomers) [norgestimate]
3. C[C@H]1c2cccc(O)c2C(=O)C2=C(O)[C@]3(O)C(=O)C(C(N)=O)=C(O)[C@@H](N(C)C)[C@@H]3[C@@H](O)[C@@H]21 [doxycycline]

1. 5 to 23%
2. 35 to 64%
3. ~19%

---

Field: inhibition at 100 µM. Provide a value for each of the compounds that follow.
# tested.system: OSTα/β (Homo sapiens)
# assay.name: Inhibition of OSTα/β-mediated DHEAS uptake in OSTα/β-overexpressing Flp-In 293
# Type: cell-based
# cond: Flp-In-293, read-out: Inhibition of OSTα/β-mediated DHEAS uptake (screening)

Solved cases (3 shown):
// returns reported inhibition at 100 µM for input COc1ccc2c(c1)c(CC(=O)O)c(C)n2C(=O)c1ccc(Cl)cc1
5 to 23%

Follow-up entry: CCCN(CCC)S(=O)(=O)c1ccc(C(=O)O)cc1
5 to 23%

Follow-up entry: CC[C@H](C)C(=O)O[C@H]1C[C@@H](C)C=C2C=C[C@H](C)[C@H](CC[C@@H]3C[C@@H](O)CC(=O)O3)[C@H]21
~21%

Provide inhibition at 100 µM values for the following items, in order.
1. CCc1c(Cl)c(O)c(Cl)c(O)c1C(=O)O[C@H]1[C@H](O)[C@H](OC)[C@H](OC/C2=C\C=C\C[C@H](O)/C(C)=C/[C@H](CC)[C@@H](O[C@@H]3OC(C)(C)[C@@H](OC(=O)C(C)C)[C@H](O)[C@@H]3O)/C(C)=C/C(C)=C/C[C@@H]([C@@H](C)O)OC2=O)O[C@@H]1C
2. C[C@H]1O[C@@H](O[C@H]2[C@@H](O)C[C@H](O[C@H]3[C@@H](O)C[C@H](O[C@H]4CC[C@@]5(C)[C@H](CC[C@@H]6[C@@H]5C[C@@H](O)[C@]5(C)[C@@H](C7=CC(=O)OC7)CC[C@]65O)C4)O[C@@H]3C)O[C@@H]2C)C[C@H](O)[C@@H]1O

1. 71%
2. 5 to 23%

---

# tested.system: OSTα/β (Homo sapiens)
# assay.name: Inhibition of OSTα/β-mediated DHEAS uptake in OSTα/β-overexpressing Flp-In 293
# Type: cell-based
# cond: Method 1 (10 min preincubation), test compound 100 µM, DHEAS 4 µM, 30 s uptake
attribute.measured: Inhibition of OSTα/β-mediated DHEAS uptake (screening)

// returns reported Inhibition of OSTα/β-mediated DHEAS uptake (screening) for input O=C(O)[C@H]1/C(=C/CO)O[C@@H]2CC(=O)N21
decreased

Follow-up entry: CC1(C)S[C@@H]2[C@H](NC(=O)[C@H](N)c3ccc(O)cc3)C(=O)N2[C@H]1C(=O)O
decreased
